Target: Voltage-dependent T-type calcium channel subunit alpha-1G (Homo sapiens)
Sequence (O43497 whole entry): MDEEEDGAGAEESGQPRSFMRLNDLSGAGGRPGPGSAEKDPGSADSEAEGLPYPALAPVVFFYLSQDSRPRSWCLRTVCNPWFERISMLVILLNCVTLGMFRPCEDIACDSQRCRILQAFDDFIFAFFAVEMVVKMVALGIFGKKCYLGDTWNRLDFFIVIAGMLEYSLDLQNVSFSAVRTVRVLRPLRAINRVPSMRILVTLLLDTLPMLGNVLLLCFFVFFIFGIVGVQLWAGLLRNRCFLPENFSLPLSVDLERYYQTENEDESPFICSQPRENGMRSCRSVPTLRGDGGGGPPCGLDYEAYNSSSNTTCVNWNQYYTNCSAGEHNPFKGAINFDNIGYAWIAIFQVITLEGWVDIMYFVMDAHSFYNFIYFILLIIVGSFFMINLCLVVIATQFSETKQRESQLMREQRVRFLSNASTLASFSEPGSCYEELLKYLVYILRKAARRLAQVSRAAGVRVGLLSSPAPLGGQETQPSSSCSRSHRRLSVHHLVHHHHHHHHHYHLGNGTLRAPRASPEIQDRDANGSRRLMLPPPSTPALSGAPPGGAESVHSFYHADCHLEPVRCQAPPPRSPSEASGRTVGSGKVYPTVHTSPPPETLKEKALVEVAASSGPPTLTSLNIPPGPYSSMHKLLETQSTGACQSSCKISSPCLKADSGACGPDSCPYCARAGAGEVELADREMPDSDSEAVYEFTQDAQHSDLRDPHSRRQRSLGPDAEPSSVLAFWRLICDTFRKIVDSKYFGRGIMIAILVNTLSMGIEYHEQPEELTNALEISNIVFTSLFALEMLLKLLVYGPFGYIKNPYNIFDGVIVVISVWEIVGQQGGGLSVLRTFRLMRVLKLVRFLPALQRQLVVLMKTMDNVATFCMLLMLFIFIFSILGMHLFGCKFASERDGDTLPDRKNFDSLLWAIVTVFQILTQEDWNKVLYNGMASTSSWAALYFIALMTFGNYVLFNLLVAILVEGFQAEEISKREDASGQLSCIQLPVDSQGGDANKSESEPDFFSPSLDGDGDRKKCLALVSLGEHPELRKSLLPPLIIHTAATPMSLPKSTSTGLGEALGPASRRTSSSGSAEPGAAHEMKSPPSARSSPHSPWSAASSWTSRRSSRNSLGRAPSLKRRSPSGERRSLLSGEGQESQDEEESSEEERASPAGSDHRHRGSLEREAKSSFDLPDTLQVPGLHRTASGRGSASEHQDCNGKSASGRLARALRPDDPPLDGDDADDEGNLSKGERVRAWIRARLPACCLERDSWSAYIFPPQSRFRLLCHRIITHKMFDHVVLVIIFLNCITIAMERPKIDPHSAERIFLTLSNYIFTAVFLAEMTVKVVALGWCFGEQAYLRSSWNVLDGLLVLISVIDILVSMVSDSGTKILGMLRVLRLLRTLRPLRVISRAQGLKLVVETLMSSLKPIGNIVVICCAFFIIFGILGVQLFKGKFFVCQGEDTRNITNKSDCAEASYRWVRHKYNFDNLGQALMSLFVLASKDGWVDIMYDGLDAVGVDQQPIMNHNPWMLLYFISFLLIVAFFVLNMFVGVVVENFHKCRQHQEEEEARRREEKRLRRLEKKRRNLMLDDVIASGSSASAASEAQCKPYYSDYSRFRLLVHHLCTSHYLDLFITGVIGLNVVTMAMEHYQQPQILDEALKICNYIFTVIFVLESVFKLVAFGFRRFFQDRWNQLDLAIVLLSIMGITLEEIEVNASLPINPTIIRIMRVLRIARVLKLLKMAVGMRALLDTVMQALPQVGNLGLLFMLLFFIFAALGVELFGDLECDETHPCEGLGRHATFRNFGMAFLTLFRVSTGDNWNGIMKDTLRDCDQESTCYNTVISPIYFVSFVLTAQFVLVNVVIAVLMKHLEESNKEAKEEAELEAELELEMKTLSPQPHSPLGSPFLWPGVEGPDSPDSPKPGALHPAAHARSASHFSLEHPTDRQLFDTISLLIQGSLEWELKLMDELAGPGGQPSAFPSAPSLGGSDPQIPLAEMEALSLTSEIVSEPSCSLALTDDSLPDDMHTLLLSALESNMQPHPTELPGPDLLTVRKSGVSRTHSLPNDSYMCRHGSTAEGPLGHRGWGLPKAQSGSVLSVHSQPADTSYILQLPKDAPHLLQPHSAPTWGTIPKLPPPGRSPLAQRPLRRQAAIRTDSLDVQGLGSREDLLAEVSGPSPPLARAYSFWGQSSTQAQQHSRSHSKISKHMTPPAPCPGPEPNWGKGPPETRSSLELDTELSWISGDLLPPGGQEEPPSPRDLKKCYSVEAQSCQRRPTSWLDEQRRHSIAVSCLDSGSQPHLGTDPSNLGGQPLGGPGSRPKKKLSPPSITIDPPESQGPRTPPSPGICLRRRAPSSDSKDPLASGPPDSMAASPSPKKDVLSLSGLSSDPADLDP
Assay: Channel blocking activity at recombinant human CaV 3.1 channel expressed in HEK293 cells assessed as inhibition of Ca2+ flux preincubated for 3 mins followed by CaCl2 addition by fluo-4 dye-based FLIPR assay
observation-type: IC50 (nM)
Give bare numbers, in nM.

Below: 3 compounds and their reported IC50.
C[C@@H]1CN(CCOC(C)(C)C)c2ccccc2[C@H](C)N1C(=O)NCc1ccccc1 (racemic): 35
COc1ccc(CNC(=O)N2[C@H](C)CN(CCC(C)C)c3cnccc3[C@@H]2C)cc1 (racemic): 76
C[C@@H]1CN(Cc2ccc(C(F)(F)F)o2)c2ccccc2[C@H](C)N1C(=O)NCc1ccccc1 (racemic): 7

Consider the compound shown here: CC(C)CCN1C[C@@H](C)N(C(=O)Nc2cccnc2)[C@@H](C)c2ccncc21 (racemic) What is its recorded IC50?
613

The measurements presented in this section are drawn from ChEMBL document CHEMBL3864167.
